Listed next: entries and their corresponding IL-1β secretion, LPS treated monocytes, at 1 µM.
experimental system: T1, IL10Rα/IL2Rγ receptor (human) (UniProt Q13651)
T1 sequence (looked up) 1: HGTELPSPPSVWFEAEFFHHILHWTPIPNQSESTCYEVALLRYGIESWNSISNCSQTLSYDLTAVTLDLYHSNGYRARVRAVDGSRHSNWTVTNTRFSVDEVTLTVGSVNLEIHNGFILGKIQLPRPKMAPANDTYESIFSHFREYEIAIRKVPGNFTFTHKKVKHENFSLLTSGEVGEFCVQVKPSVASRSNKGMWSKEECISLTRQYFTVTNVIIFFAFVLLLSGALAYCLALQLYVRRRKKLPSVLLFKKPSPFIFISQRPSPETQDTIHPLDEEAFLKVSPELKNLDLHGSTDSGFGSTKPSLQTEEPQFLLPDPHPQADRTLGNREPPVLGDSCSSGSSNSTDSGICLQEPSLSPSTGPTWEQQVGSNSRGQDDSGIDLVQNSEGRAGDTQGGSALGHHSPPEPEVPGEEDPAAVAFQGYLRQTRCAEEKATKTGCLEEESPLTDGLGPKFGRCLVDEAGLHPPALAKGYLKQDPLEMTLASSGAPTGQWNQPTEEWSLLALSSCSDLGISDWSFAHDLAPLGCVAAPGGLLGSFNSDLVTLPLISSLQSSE
T1 sequence (looked up) 2: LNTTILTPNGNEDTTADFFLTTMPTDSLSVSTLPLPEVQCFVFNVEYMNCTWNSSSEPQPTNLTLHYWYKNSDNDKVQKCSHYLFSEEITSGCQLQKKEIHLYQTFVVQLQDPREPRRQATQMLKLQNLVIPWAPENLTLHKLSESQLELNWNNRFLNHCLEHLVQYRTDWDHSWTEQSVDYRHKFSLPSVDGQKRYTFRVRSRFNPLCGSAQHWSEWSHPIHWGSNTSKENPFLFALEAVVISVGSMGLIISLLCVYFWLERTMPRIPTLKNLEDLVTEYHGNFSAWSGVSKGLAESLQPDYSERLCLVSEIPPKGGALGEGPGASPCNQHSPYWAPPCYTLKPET
experiment: cell-based or functional assay
Field format: number, assumed pg/mL, no unit text.

hIL10Ra_VHH14 - hIL2Rg_VHH19, No linker, tag his (bispecific antibody, not shown: small tags and cut ends) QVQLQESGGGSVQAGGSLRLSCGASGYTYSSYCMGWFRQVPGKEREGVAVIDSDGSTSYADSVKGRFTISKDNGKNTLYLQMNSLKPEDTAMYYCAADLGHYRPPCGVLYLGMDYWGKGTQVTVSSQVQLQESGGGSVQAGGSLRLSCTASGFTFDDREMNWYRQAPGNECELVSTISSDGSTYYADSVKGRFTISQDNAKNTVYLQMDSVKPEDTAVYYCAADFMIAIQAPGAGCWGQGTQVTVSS = 5800

Recorded result, hIL10Ra_VHH14 - hIL2Rg_VHH19, linker GS, tag his (bispecific antibody, not shown: small tags and cut ends) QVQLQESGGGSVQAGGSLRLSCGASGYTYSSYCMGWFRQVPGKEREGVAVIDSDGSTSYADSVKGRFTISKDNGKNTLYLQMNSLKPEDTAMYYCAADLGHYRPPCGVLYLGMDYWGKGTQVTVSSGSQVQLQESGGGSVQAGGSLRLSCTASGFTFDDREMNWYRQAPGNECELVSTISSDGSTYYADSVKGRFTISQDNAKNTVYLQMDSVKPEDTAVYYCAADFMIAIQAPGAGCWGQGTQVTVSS , IL-1β secretion, LPS treated monocytes, at 1 µM: 5760

Source of measurements: patent US20250163162A1
